Tested on: DFTD cell line T3 (06/0368)
procedureDetails: cell viability, percent of DMSO control (CellTiter-Glo); higher = more viable cells
conditionDetails: 0.5 µM; 72 h
Label T when cell viability is strictly below 60%; otherwise label F.

CC(C)(C)P(=NC(=S)NCCCO)(N1CCCCCC1)N1CCCCCC1 [T0503-0280] :: F

Strictly below 60% in cell viability? CNC(=O)CN1CCC(Oc2cc3c(Nc4cccc(Cl)c4F)ncnc3cc2OC)CC1 [AZD8931 (Sapitinib)] T

Does the reported cell viability of C=CC(=O)Nc1cccc(Nc2nc(Nc3ccc(N4CCN(C(C)=O)CC4)cc3OC)ncc2C(F)(F)F)c1 [Rociletinib (CO-1686, AVL-301)] stay below 60%? F

Confirm or reject: cell viability of C=CC(=O)N1CCC[C@@H](n2nc(-c3ccc(Oc4ccccc4)cc3)c3c(N)ncnc32)C1 lies strictly below 60% T

Please determine if Cc1cc(Nc2ncnc3ccc(NC4=NC(C)(C)CO4)cc23)ccc1Oc1ccn2ncnc2c1 [Irbinitinib(ARRY-380; ONT-380)] is below 60% in terms of cell viability. F

Answer whether the compound Cn1cnc2c(F)c(Nc3ccc(Br)cc3Cl)c(C(=O)NOCCO)cc21.O=S(=O)(O)O [Selumetinib (AZD6244)] has cell viability strictly less than 60% F

For this compound, is cell viability lower than 60%? COc1cc2ncnc(Nc3cccc(Cl)c3F)c2cc1OC(=O)N1CCN(C)C[C@H]1C [AZD3759] F

====

Below, each entry is listed with its recorded cell viability.
Tested on: DFTD cell line T2 (05/2569)
procedureDetails: cell viability, percent of DMSO control (CellTiter-Glo); higher = more viable cells
conditionDetails: 1.5 µM; 72 h
Give just the number in %; leave the unit off.

COc1cc2ncnc(Nc3cccc(Cl)c3)c2cc1OC :: 49.2
COc1cc2ncnc(Nc3cccc(Br)c3)c2cc1OC.Cl :: 40.7
CCOc1cc2ncc(C#N)c(Nc3ccc(F)c(Cl)c3)c2cc1NC(=O)/C=C/CN(C)C [Pelitinib (EKB-569)] :: 42.4

As a next step, examine the compound that follows.
Let me know recorded cell viability for C=CC(=O)Nc1cc(Nc2ncc(Cl)c(-c3c[nH]c4ccccc34)n2)c(OC)cc1N(C)CCN(C)C , thanks. 16.6

====

Tested on: DFTD cell line T3 (06/0368)
procedureDetails: cell viability, percent of DMSO control (CellTiter-Glo); higher = more viable cells
conditionDetails: 0.0185 µM; 72 h
assayMetric: cell viability (%)
Please state the figure in %; there is no need to write the unit.

COc1cccc2c1C(=O)c1c(O)c3c(c(O)c1C2=O)C[C@@](O)(C(=O)CO)C[C@@H]3O[C@H]1C[C@H](N)[C@H](O)[C@H](C)O1 [Doxorubicin] :: 96.6
C=CC(=O)N1CCC(Oc2cc3c(Nc4ccc(Cl)c(Cl)c4F)ncnc3cc2OC)CC1 [Poziotinib (HM781-36B)] :: 52.5

Then this molecule:
Specify measured cell viability for CNC(=O)CN1CCC(Oc2cc3c(Nc4cccc(Cl)c4F)ncnc3cc2OC)CC1 [AZD8931 (Sapitinib)] . 95.2

====

Item-by-item account of cell viability
Tested on: DFTD cell line T3 (06/0368)
procedureDetails: cell viability, percent of DMSO control (CellTiter-Glo); higher = more viable cells
conditionDetails: 0.5 µM; 72 h
Give the quantity in %, number only.

COc1cc2ncnc(Nc3ccc(O)c(Br)c3)c2cc1OC :: 67.7
COCCn1c2c([n+](Cc3cnccn3)c1C)C(=O)c1ccccc1C2=O.[Br-] :: 22
C=CC(=O)N1CCC(Oc2cc3c(Nc4ccc(Cl)c(Cl)c4F)ncnc3cc2OC)CC1 [Poziotinib (HM781-36B)] :: 42.2

Shift focus to the following entry.
Give the value of cell viability reported for the following: C=CC(=O)Nc1cc(Nc2ncc(Cl)c(-c3c[nH]c4ccccc34)n2)c(OC)cc1N(C)CCN(C)C 38.2
